binders and their reported ELISA signal
Molecular target: T1, murine HVEM (murine, UniProt Q80WM9 39-206, limits assumed); further: test concentration or dose not given here
T1 construct: also called Mouse
T1 sequence (looked up): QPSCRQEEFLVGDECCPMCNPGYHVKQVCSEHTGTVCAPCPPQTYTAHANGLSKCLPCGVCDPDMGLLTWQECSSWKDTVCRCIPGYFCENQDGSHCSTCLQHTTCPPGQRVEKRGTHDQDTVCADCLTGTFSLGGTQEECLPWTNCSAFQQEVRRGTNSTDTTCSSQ
Assay: ELISA
Provide a numeric answer; units are not to be included.

Sample answers from the record:
* Ab_053 (H5S19-20A20A) (antibody, V domains shown, also called Ab_53) VH: QVQLKESGPGLVAPSQSLSITCTVSGFSLTSYGVHWVRQPPGKGLEWLGVIWAGGITNYNSALMSRLSISKDNSKSQVFLKMNSLQTDDTAMYYCARDWERDSSGPFVYWGQGTLVTVSA VL: DIQMTQTTSSLSASLGDRVTISCTASQGISNYLNWYQQKPDGTVKLLIYYTSTLHSGVPSRFSGSGSGTDYSLTISNLEPEDIATYYCQQYFKLPWTFGGGTKLEIK | 0.042
* Ab_058 (H5S19-6A8A) (antibody, V domains shown, also called Ab_58) VH: EVQLVESGGGLVKPGGSLKLSCAASGFTFNIYTMSWVRQSPEMRLEWVAEISSGGSHTYYPDTVTGRFTISRDNAKNTLYLEMSSLRSEDTAIYYCARGGSLFDYWGQGTTLTVSS VL: DVQITQSPSYLAASPGETITINCRTSKNISKYLAWYQEKPGKTNKLLIYSGSTLQSGIPSRFSGSGSGTDFTLTISSLEPEDFVMYHCQQHNEYPWTFGGGTKLEIK | 0.043

Prompt: Can you share its ELISA signal? I mean this binder: Ab_036 (H5S15-12A13A) (antibody, V domains shown, also called Ab_36) VH: EVQLQQSGAELVKPGASVKLSCTASGFNIKDTYMHWVKQRPEQGLEWIGRIDPANGNTKFDPKFQGKATITADTSSNTAYLQLSSLTSEDTAVYYCASRGGSSFDYWGQGTTLTVSS VL: DIVLTQSPASLAVSLGQRATISCKASQSVDYDGESYMNWYQQKPGQPPKLLIYAASNLDSGIPARFSGSGSGTDFTLNIHPVEEEDAATYYCQQSNEDPLTFGAGTKLELK
Completion: 0.046
